Each recorded value in this set is attributed to the supplement of paper PMC10567573.

B1: ZNF649 (parent)
chain: LVAHQRYHTGKTPFVCPECGQPCS

Variants of: B1
test description: protein stability index of a GFP-peptide fusion (GPS, HEK-293T) (PSI 1-6); higher = more stable;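 note: lentivirally expressed fusions sorted by FACS into six bins by GFP to DsRed ratio, PSI derived from sequencing read proportions per bin multiplied by bin number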
experimental setup: c terminus: a fixed tail appended
Given measured protein stability index, output true (1) if it is greater than or equal to 3 and false (0) if not.

LVGHQRYHTGKTPFVCPECGQPCS [A3G]    true (1)
LVAHQRYHTQKTPFVCPECGQPCS [G10Q]    true (1)

Q: Form field: protein stability index at least 3? Entry: LVAHQRYHHGKTPFVCPECGQPCS [T9H]
A: false (0)

Q: Form field: protein stability index at least 3? Entry: LVAHQEYHTGKTPFVCPECGQPCS [R6E]
A: true (1)

Q: Form field: protein stability index at least 3? Entry: LVAHQRYHTGKTPFVCPEKGQPCS [C19K]
A: true (1)
